Could you please report measured Ki for the items listed next?
Target Of Assay: purified class A, C and D enzymes (UniProt Q9F663)
Construct: rows headed: Ki (KPC-2, NCF); other: purified KPC-2; nitrocefin reporter substrate
Experimental Setup: read-out: Ki (KPC-2, NCF); purified KPC-2; nitrocefin reporter substrate

- Smiles Repr: "COc1ccc2c(c1C(=O)O)OB(O)[C@@H](Sc1nnc(NCCN)s1)C2"
  Target Of Assay: "purified class A, C and D enzymes (UniProt Q9F663)"
  Ki: "100 to 1000 nM"

I would be grateful if you could provide Ki for each of the following entries.
1. COCc1ccc2c(c1C(=O)O)OB(O)[C@@H](Sc1nnc(N)s1)C2
2. Nc1ncc(S[C@H]2Cc3ccc(F)c(C(=O)O)c3OB2O)s1
3. COc1ccc2c(c1C(=O)O)OB(O)[C@@H](SC1CN(S(N)(=O)=O)C1)C2
4. N#CCOc1ccc2c(c1C(=O)O)OB(O)[C@@H](Sc1nncs1)C2

1. < 100 nM
2. < 100 nM
3. 100 to 1000 nM
4. 100 to 1000 nM
